system: Enterobacter cloacae; assay: Antibacterial activity against Enterobacter cloacae EB5; format: functional; details: Enterobacter cloacae; read-out: MIC
Entries and their measured MIC follow.
Number in µg/mL, nothing else.

Worked cases, MIC given:
MOLECULE	OBSERVABLE	VALUE_REPORTED
CO/N=C(\C(=O)N[C@@H]1C(=O)N2C(C(=O)[O-])=C(C[n+]3ccccc3C)CS[C@H]12)c1csc(N)n1	MIC	2
CCC(C)Nc1nc2cc[n+](CC3=C(C(=O)[O-])N4C(=O)[C@@H](NC(=O)/C(=N\OC)c5csc(N)n5)[C@H]4SC3)cc2s1 (some centres not stated)	MIC	0.25
CO/N=C(\C(=O)N[C@@H]1C(=O)N2C(C(=O)[O-])=C(C[n+]3csc4c3CCCC4)CS[C@H]12)c1csc(N)n1	MIC	0.125
CO/N=C(\C(=O)N[C@@H]1C(=O)N2C(C(=O)[O-])=C(C[n+]3cccc(Cl)c3)CS[C@H]12)c1csc(N)n1	MIC	0.25
CO/N=C(\C(=O)N[C@@H]1C(=O)N2C(C(=O)[O-])=C(C[n+]3ccc4[nH]c(-c5cccs5)nc4c3)CS[C@H]12)c1csc(N)n1	MIC	0.5
CO/N=C(\C(=O)N[C@@H]1C(=O)N2C(C(=O)[O-])=C(C[n+]3cccc(CC(=O)O)c3)CS[C@H]12)c1csc(N)n1 (stereo in doubt; 14)	MIC	0.25

Next item in the queue.
Supply measured MIC of "CO/N=C(\C(=O)N[C@@H]1C(=O)N2C(C(=O)[O-])=C(C[n+]3ccc4c(O)cccc4c3)CS[C@H]12)c1csc(N)n1" in your reply.
0.125

---

tested on: Escherichia coli; test: In vivo efficacy against Escherichia coli infected mice treated at 1 hr and 5 hr post infection; format: functional; conditions: Escherichia coli; read-out: ED50
OBSERVABLE: ED50 (mg/kg)
Number in mg/kg, nothing else.

Worked cases, ED50 given:
STRUCTURE_SMILES	UNIT_ABBREVIATION	ED50
CO/N=C(\C(=O)N[C@@H]1C(=O)N2C(C(=O)[O-])=C(C[n+]3cccc4ccc(O)cc43)CS[C@H]12)c1csc(N)n1	mg/kg	0.05
CO/N=C(\C(=O)N[C@@H]1C(=O)N2C(C(=O)[O-])=C(C[n+]3cccc4ccccc43)CS[C@H]12)c1csc(N)n1	mg/kg	0.04
CO/N=C(\C(=O)N[C@@H]1C(=O)N2C(C(=O)[O-])=C(C[n+]3cccc4sccc43)CS[C@H]12)c1csc(N)n1	mg/kg	0.04

Supply measured ED50 of "CO/N=C(\C(=O)N[C@@H]1C(=O)N2C(C(=O)[O-])=C(C[n+]3ccccc3)CS[C@H]12)c1csc(N)n1" in your reply.
0.07

Supply measured ED50 of "CO/N=C(\C(=O)N[C@@H]1C(=O)N2C(C(=O)[O-])=C(C[n+]3cccc(Cl)c3)CS[C@H]12)c1csc(N)n1" in your reply.
0.14

---

system: Staphylococcus aureus; assay: Antibacterial activity against penicillin G resistance Staphylococcus aureus; format: functional; conditions: Staphylococcus aureus; read-out: MIC
OBSERVABLE: MIC (µg/mL)
Number in µg/mL, nothing else.

MOLECULE	VALUE_REPORTED
CCc1nc2c[n+](CC3=C(C(=O)[O-])N4C(=O)[C@@H](NC(=O)/C(=N\OC)c5csc(N)n5)[C@H]4SC3)ccc2s1	4
CO/N=C(\C(=O)N[C@@H]1C(=O)N2C(C(=O)[O-])=C(C[n+]3ccsc3)CS[C@H]12)c1csc(N)n1	8
CO/N=C(\C(=O)N[C@@H]1C(=O)N2C(C(=O)[O-])=C(C[n+]3ccc4c(O)cccc4c3)CS[C@H]12)c1csc(N)n1	2
CO/N=C(\C(=O)N[C@@H]1C(=O)N2C(C(=O)[O-])=C(C[n+]3cc(C)cc(C)c3)CS[C@H]12)c1csc(N)n1	2

Supply measured MIC of "CO/N=C(\C(=O)N[C@@H]1C(=O)N2C(C(=O)[O-])=C(C[n+]3cccc4ccc(O)cc43)CS[C@H]12)c1csc(N)n1" in your reply.
8

Supply measured MIC of "CO/N=C(\C(=O)N[C@@H]1C(=O)N2C(C(=O)[O-])=C(C[n+]3ccc4scc(C(=O)O)c4c3)CS[C@H]12)c1csc(N)n1" in your reply.
16

Supply measured MIC of "CO/N=C(\C(=O)N[C@@H]1C(=O)N2C(C(=O)[O-])=C(C[n+]3ccc4ccccc4c3)CS[C@H]12)c1csc(N)n1" in your reply.
1

Supply measured MIC of "CO/N=C(\C(=O)N[C@@H]1C(=O)N2C(C(=O)[O-])=C(C[n+]3ccc4nc(C(C)(C)C)sc4c3)CS[C@H]12)c1csc(N)n1" in your reply.
4

Supply measured MIC of "CO/N=C(\C(=O)N[C@@H]1C(=O)N2C(C(=O)[O-])=C(C[n+]3ccccc3C)CS[C@H]12)c1csc(N)n1" in your reply.
16

Supply measured MIC of CO/N=C(\C(=O)N[C@@H]1C(=O)N2C(C(=O)[O-])=C(C[n+]3cccc4c3CCCC4)CS[C@H]12)c1csc(N)n1 [CEFQUINOME] in your reply.
2

Supply measured MIC of "CO/N=C(\C(=O)N[C@@H]1C(=O)N2C(C(=O)[O-])=C(C[n+]3cccc4cc(O)ccc43)CS[C@H]12)c1csc(N)n1" in your reply.
2

Supply measured MIC of "CO/N=C(\C(=O)N[C@@H]1C(=O)N2C(C(=O)[O-])=C(C[n+]3ccc4cnccc4c3)CS[C@H]12)c1csc(N)n1" in your reply.
1

Supply measured MIC of CO/N=C(\C(=O)N[C@@H]1C(=O)N2C(C(=O)O)=C(COC(C)=O)CS[C@H]12)c1csc(N)n1 [CEFOTAXIME] in your reply.
16

Supply measured MIC of "CO/N=C(\C(=O)N[C@@H]1C(=O)N2C(C(=O)[O-])=C(C[n+]3ccc4nc(C)sc4c3)CS[C@H]12)c1csc(N)n1" in your reply.
4

Supply measured MIC of "CO/N=C(\C(=O)N[C@@H]1C(=O)N2C(C(=O)[O-])=C(C[n+]3ccc4cncnc4c3)CS[C@H]12)c1csc(N)n1" in your reply.
32

---

assay: Terminal half life in Rhesus […] the dose of 30 mg/kg.; type: ADME, organism-based, Macaca mulatta; parameters: dose 30 mg/kg; conditions: rhesus monkey
OBSERVABLE: half-life

Supply measured half-life of "CC(C)(O/N=C(\C(=O)N[C@@H]1C(=O)N2C(C(=O)[O-])=C(C[n+]3ccccc3)CS[C@H]12)c1csc(N)n1)C(=O)O" in your reply.
56 min

---

Entries and their measured log10 of ED50 follow.
test system: Escherichia coli; assay: In vivo efficacy against Escherichia coli infected mice treated at 1 hr and 5 hr post infection; format: functional; details: Escherichia coli; read-out: ED50
Note: values are log10 of ED50 expressed in mg/kg.

Worked cases, log10 of ED50 given:
COMPOUND	TARGET_DESC	VALUE_REPORTED
CO/N=C(\C(=O)N[C@@H]1C(=O)N2C(C(=O)[O-])=C(C[n+]3cccc(S(=O)(=O)O)c3)CS[C@H]12)c1csc(N)n1	Escherichia coli	-1.10
CO/N=C(\C(=O)N[C@@H]1C(=O)N2C(C(=O)[O-])=C(C[n+]3ccc4sccc4c3)CS[C@H]12)c1csc(N)n1	Escherichia coli	-1.70
CO/N=C(\C(=O)N[C@@H]1C(=O)N2C(C(=O)[O-])=C(C[n+]3cccc4cc(O)ccc43)CS[C@H]12)c1csc(N)n1	Escherichia coli	-1.40

Supply measured log10 of ED50 of CO/N=C(\C(=O)N[C@@H]1C(=O)N2C(C(=O)[O-])=C(C[n+]3cccc(CC(=O)O)c3)CS[C@H]12)c1csc(N)n1 (stereo in doubt; 14) in your reply.
-1.05

Supply measured log10 of ED50 of "CO/N=C(\C(=O)N[C@@H]1C(=O)N2C(C(=O)[O-])=C(C[n+]3cccc4ccsc43)CS[C@H]12)c1csc(N)n1" in your reply.
-1.30

Supply measured log10 of ED50 of "CCC(CC)c1cc[n+](CC2=C(C(=O)[O-])N3C(=O)[C@@H](NC(=O)/C(=N\OC)c4csc(N)n4)[C@H]3SC2)cc1" in your reply.
-0.30

---

tested on: Klebsiella pneumoniae; assay: Antibacterial activity against Klebsiella pneumoniae X26; type: functional; conditions: Klebsiella pneumoniae; read-out: MIC
Entries and their measured MIC follow.
Number in µg/mL, nothing else.

Worked cases, MIC given:
STRUCTURE_SMILES	MIC [µg/mL]
CO/N=C(\C(=O)N[C@@H]1C(=O)N2C(C(=O)[O-])=C(C[n+]3ccc4cncnc4c3)CS[C@H]12)c1csc(N)n1	0.125
CO/N=C(\C(=O)N[C@@H]1C(=O)N2C(C(=O)[O-])=C(C[n+]3cccc4ccc(O)cc43)CS[C@H]12)c1csc(N)n1	0.03
CO/N=C(\C(=O)N[C@@H]1C(=O)N2C(C(=O)[O-])=C(C[n+]3csc4c3CCCC4)CS[C@H]12)c1csc(N)n1	0.03

Supply measured MIC of "CO/N=C(\C(=O)N[C@@H]1C(=O)N2C(C(=O)[O-])=C(C[n+]3ccsc3)CS[C@H]12)c1csc(N)n1" in your reply.
0.125

Supply measured MIC of "CO/N=C(\C(=O)N[C@@H]1C(=O)N2C(C(=O)[O-])=C(C[n+]3csc(CCOC(C)=O)c3C)CS[C@H]12)c1csc(N)n1" in your reply.
0.015

Supply measured MIC of "CO/N=C(\C(=O)N[C@@H]1C(=O)N2C(C(=O)[O-])=C(C[n+]3cccc(Cl)c3)CS[C@H]12)c1csc(N)n1" in your reply.
0.06
